# Experiment Notes: Bridging study of monophosphate salt and free base in dog (plasma pharmacokinetics)
# Assay type: in vivo
# Test Context: male, po, 40 mg/kg, dog M-2001, oral capsule
Where a name gives a salt, the structure may show the parent alone.
Measured Metric: AUC (ng·h/mL)
Please state the figure in ng·h/mL; there is no need to write the unit.

*Q* What value of measured AUC is listed for CN1C(=O)c2c(nn(Cc3ccc(-c4cccc(F)n4)cc3)c2Nc2ccccc2)N2C1=N[C@@H]1CCC[C@@H]12 [Phosphate salt] ?
*A* 13200

###

# Experiment Notes: Bridging study of monophosphate salt and free base in dog (plasma pharmacokinetics)
# Type: in vivo
# Test Context: male, po, 40 mg/kg, dog M-5002, oral gavage
Measured Metric: Tmax
Quote the value and follow it with the unit of measurement.

*Q* What value of measured Tmax is listed for CN1C(=O)c2c(nn(Cc3ccc(-c4cccc(F)n4)cc3)c2Nc2ccccc2)N2C1=N[C@@H]1CCC[C@@H]12 [Free base API (amorphous)] ?
*A* 4 h

###

# Experiment Notes: Bridging study of monophosphate salt and free base in dog (plasma pharmacokinetics)
# Type: in vivo
# Test Context: female, po, 40 mg/kg, dog F-5102, oral gavage, read-out: E Half-life (converted)
Measured Metric: half-life (h)
Please state the figure in h; there is no need to write the unit.

*Q* What value of measured half-life is listed for CN1C(=O)c2c(nn(Cc3ccc(-c4cccc(F)n4)cc3)c2Nc2ccccc2)N2C1=N[C@@H]1CCC[C@@H]12 [Free base API (amorphous)] ?
*A* 5.5

###

# Experiment Notes: Bridging study of monophosphate salt and free base in dog (plasma pharmacokinetics)
# Type: in vivo
# Test Context: both sexes, po, 40 mg/kg, Mean, oral capsule, read-out: E Half-life (converted)
Where a name gives a salt, the structure may show the parent alone.
Measured Metric: half-life (h)
Please state the figure in h; there is no need to write the unit.

*Q* What value of measured half-life is listed for CN1C(=O)c2c(nn(Cc3ccc(-c4cccc(F)n4)cc3)c2Nc2ccccc2)N2C1=N[C@@H]1CCC[C@@H]12 [Phosphate salt] ?
*A* 7.3

###

# Experiment Notes: Bridging study of monophosphate salt and free base in dog (plasma pharmacokinetics)
# Format: in vivo
# Test Context: male, po, 40 mg/kg, dog M-1002, oral gavage
# Protocol: The mono-phosphate salt of (6aR,9aS)-5,6a,7,8,9,9a-hexahydro-5-methyl-3-(phenylamino)-2-((4-(6-fluoropyridin-2-yl)phenyl)methyl)-cyclopent[4,5]imidazo[1,2-a]pyrazolo[4,3-e]pyrimidin-4(2H)-one is administered to dogs at a dose of 40 mg/kg in gelatin capsules or via oral gavage in a vehicle formulation of HCl-Citrate, pH 3.5, 0.5% methylcellulose in water. […] The analysis of drug concentration in plasma samples collected is analyzed. […]
Counter-ions that a name gives are not always drawn.
Measured Metric: Tmax (h)
Please state the figure in h; there is no need to write the unit.

*Q* What value of measured Tmax is listed for CN1C(=O)c2c(nn(Cc3ccc(-c4cccc(F)n4)cc3)c2Nc2ccccc2)N2C1=N[C@@H]1CCC[C@@H]12 [Phosphate salt] ?
*A* 4

###

# Experiment Notes: Bridging study of monophosphate salt and free base in dog (plasma pharmacokinetics)
# Format: in vivo
# Test Context: male, po, 40 mg/kg, dog M-2001, oral capsule, read-out: E Half-life (converted)
Counter-ions that a name gives are not always drawn.
Measured Metric: half-life (min)
Please state the figure in min; there is no need to write the unit.

*Q* What value of measured half-life is listed for CN1C(=O)c2c(nn(Cc3ccc(-c4cccc(F)n4)cc3)c2Nc2ccccc2)N2C1=N[C@@H]1CCC[C@@H]12 [Phosphate salt] ?
*A* 276

###

# Experiment Notes: Single rising dose clinical study (pharmacokinetic profile)
# Format: in vivo
# Test Context: plasma; human; single oral dose 300 mg, aqueous solution; Mean (SD)
Where a name gives a salt, the structure may show the parent alone.
Measured Metric: AUC(0-t) (ng·h/mL)
Please state the figure in ng·h/mL; there is no need to write the unit.

*Q* What value of measured AUC(0-t) is listed for CN1C(=O)c2c(nn(Cc3ccc(-c4cccc(F)n4)cc3)c2Nc2ccccc2)N2C1=N[C@@H]1CCC[C@@H]12 [Phosphate salt] ?
*A* 8180

###

# Experiment Notes: Bridging study of monophosphate salt and free base in dog (plasma pharmacokinetics)
# Assay type: in vivo
# Test Context: female, po, 40 mg/kg, dog F-1102, oral gavage, read-out: E Half-life (converted)
Structures can show the parent of a compound that is named as a salt.
Measured Metric: half-life (h)
Please state the figure in h; there is no need to write the unit.

*Q* What value of measured half-life is listed for CN1C(=O)c2c(nn(Cc3ccc(-c4cccc(F)n4)cc3)c2Nc2ccccc2)N2C1=N[C@@H]1CCC[C@@H]12 [Phosphate salt] ?
*A* 5.5

###

# Experiment Notes: Solubility study of phosphate salt crystals in aqueous media at pH 1.2-6.8
# Format: physicochemical
# Test Context: 0.1N HCl, pH 1.2, simulated gastric fluid, thermodynamic from solid, pH 1.2 (0.1N HCl); read-out: Solubility after 16 hrs
Measured Metric: solubility at 16 hr

*Q* What value of measured solubility at 16 hr is listed for CN1C(=O)c2c(nn(Cc3ccc(-c4cccc(F)n4)cc3)c2Nc2ccccc2)N2C1=N[C@@H]1CCC[C@@H]12 [Free base API (amorphous)] ?
*A* > 20 mg/mL

###

# Experiment Notes: Bridging study of monophosphate salt and free base in dog (plasma pharmacokinetics)
# Format: in vivo
# Test Context: male, po, 40 mg/kg, dog M-5002, oral gavage
Measured Metric: AUC (ng·h/mL)
Please state the figure in ng·h/mL; there is no need to write the unit.

*Q* What value of measured AUC is listed for CN1C(=O)c2c(nn(Cc3ccc(-c4cccc(F)n4)cc3)c2Nc2ccccc2)N2C1=N[C@@H]1CCC[C@@H]12 [Free base API (amorphous)] ?
*A* 36500

###

# Experiment Notes: Single rising dose clinical study (pharmacokinetic profile)
# Format: in vivo
# Test Context: plasma; human; single oral dose 10 mg, aqueous solution; Mean (SD)
Structures can show the parent of a compound that is named as a salt.
Measured Metric: AUC(0-t) (ng·h/mL)
Please state the figure in ng·h/mL; there is no need to write the unit.

*Q* What value of measured AUC(0-t) is listed for CN1C(=O)c2c(nn(Cc3ccc(-c4cccc(F)n4)cc3)c2Nc2ccccc2)N2C1=N[C@@H]1CCC[C@@H]12 [Phosphate salt] ?
*A* 768

###

# Experiment Notes: Single rising dose clinical study (pharmacokinetic profile)
# Format: in vivo
# Test Context: plasma; human; single oral dose 150 mg, aqueous solution; Mean (SD)
Counter-ions that a name gives are not always drawn.
Measured Metric: Cmax (ng/mL)
Please state the figure in ng/mL; there is no need to write the unit.

*Q* What value of measured Cmax is listed for CN1C(=O)c2c(nn(Cc3ccc(-c4cccc(F)n4)cc3)c2Nc2ccccc2)N2C1=N[C@@H]1CCC[C@@H]12 [Phosphate salt] ?
*A* 585

###

# Experiment Notes: Bridging study of monophosphate salt and free base in dog (plasma pharmacokinetics)
# Assay type: in vivo
# Test Context: female, po, 40 mg/kg, dog F-1101, oral gavage
Where a name gives a salt, the structure may show the parent alone.
Measured Metric: Tmax (h)
Please state the figure in h; there is no need to write the unit.

*Q* What value of measured Tmax is listed for CN1C(=O)c2c(nn(Cc3ccc(-c4cccc(F)n4)cc3)c2Nc2ccccc2)N2C1=N[C@@H]1CCC[C@@H]12 [Phosphate salt] ?
*A* 4

###

# Experiment Notes: Solubility study of phosphate salt crystals in aqueous media at pH 1.2-6.8
# Format: physicochemical
# Test Context: 50 mM phosphate buffer, pH 4, aqueous buffer, thermodynamic from solid, pH 4, 50 mM phosphate buffer; read-out: Solubility after 1 hr
Counter-ions that a name gives are not always drawn.
Measured Metric: solubility at 1 hr (µg/mL)
Please state the figure in µg/mL; there is no need to write the unit.

*Q* What value of measured solubility at 1 hr is listed for CN1C(=O)c2c(nn(Cc3ccc(-c4cccc(F)n4)cc3)c2Nc2ccccc2)N2C1=N[C@@H]1CCC[C@@H]12 [Phosphate salt] ?
*A* 2500

###

# Experiment Notes: Bridging study of monophosphate salt and free base in dog (plasma pharmacokinetics)
# Assay type: in vivo
# Test Context: po, 40 mg/kg, Mean, oral gavage
Structures can show the parent of a compound that is named as a salt.
Measured Metric: Cmax (ng/mL)
Please state the figure in ng/mL; there is no need to write the unit.

*Q* What value of measured Cmax is listed for CN1C(=O)c2c(nn(Cc3ccc(-c4cccc(F)n4)cc3)c2Nc2ccccc2)N2C1=N[C@@H]1CCC[C@@H]12 [Phosphate salt] ?
*A* 1160

###

# Experiment Notes: Single rising dose clinical study (pharmacokinetic profile)
# Type: in vivo
# Test Context: plasma; human; single oral dose 300 mg, aqueous solution; Mean (SD)
Structures can show the parent of a compound that is named as a salt.
Measured Metric: AUC(0-inf) (ng·h/mL)
Please state the figure in ng·h/mL; there is no need to write the unit.

*Q* What value of measured AUC(0-inf) is listed for CN1C(=O)c2c(nn(Cc3ccc(-c4cccc(F)n4)cc3)c2Nc2ccccc2)N2C1=N[C@@H]1CCC[C@@H]12 [Phosphate salt] ?
*A* 8190
